Just for reference, patent US20080114005A1 is where these values come from.

Form field: melting point (one value per entry).

- COMPOUND: "CCCc1nn(C)c2c(=O)n(CCCOc3ccc(SC(C)(C)C(=O)O)cc3)c(CC)nc12 [Example 40]"
  VAL: "115 to 117 °C"

Which melting point reading was recorded for the compound CCCc1nn(C)c2c(=O)n(CCOc3cccc(OC(C)(C)C(=O)O)c3)c(C)nc12 [Example 89] ? 140 to 142 °C

Which melting point reading was recorded for the compound CCc1nc2ccccc2c(=O)n1CCCNc1ccc(SC(C)(C)C(=O)O)cc1 [Example 10] ? 60 to 62 °C

Which melting point reading was recorded for the compound CCCc1nn(CC)c2c(=O)n(CCNc3ccc(SC(C)(C)C(=O)O)cc3)c(CC)nc12 [Example 48] ? 143 to 145 °C

Which melting point reading was recorded for the compound CCCc1nn(CC)c2c(=O)n(CCCOc3ccc(SC(C)(C)C(=O)O)cc3)c(CC)nc12 [Example 30] ? 96 to 98 °C

Which melting point reading was recorded for the compound CCCc1nn(C)c2c(=O)n(CCOc3cccc(O[C@@](C)(CC)C(=O)O)c3)c(C)nc12 [Example 104] ? 119 to 120 °C

Which melting point reading was recorded for the compound CCCc1nn(C)c2c(=O)n(CCOc3ccc(NC(C)C(=O)OCC)cc3)c(CC)nc12 (centres unmarked) [Example 19] ? 104 to 108 °C

Which melting point reading was recorded for the compound CCCc1nn(C)c2c(=O)n(CCOc3cccc(OC(C)(CC)C(=O)O)c3)c(C)nc12 (centres unmarked) [Example 98] ? 130 to 132 °C

====

Form field: ↑HDL (one value per entry).
- Test system: hypercholesterolemic rat model
- MEASUREMENT_DESCRIPTION: plasma triglyceride and cholesterol lowering activity in hypercholesterolemic rat model
- Format: in vivo, Sprague Dawley rats
- COND: hypercholesterolemic rats, 3.0 mg/kg orally for 3 days, increase of plasma HDL (under head Reduction (%))
Numbers only here, please. The scale is %.

Which ↑HDL reading was recorded for the compound CCCc1nn(C)c2c(=O)n(CCOc3cccc(OC(C)(C)C(=O)O)c3)c(C)nc12 [Example 89] ? 102

Which ↑HDL reading was recorded for the compound CCCc1nn(C)c2c(=O)n(CCOc3cc(O[C@](C)(CC)C(=O)O)ccc3Cl)c(C)nc12 [Example 102] ? 45

Which ↑HDL reading was recorded for the compound CCCc1nn(C)c2c(=O)n(CCOc3cccc(OC(C)(CC)C(=O)O)c3)c(C)nc12 (stereo not drawn) [Example 98] ? 267

Which ↑HDL reading was recorded for the compound CCCc1nn(C)c2c(=O)n(CCCc3cccc(OC(C)(C)C(=O)O)c3)c(C)nc12.N=C(N)NCCC[C@H](N)C(=O)O [Example 82] ? 48

Which ↑HDL reading was recorded for the compound CCCc1nn(C)c2c(=O)n(CCOc3cccc(O[C@](C)(CC)C(=O)O)c3)c(C)nc12 [Example 100] ? 145

Which ↑HDL reading was recorded for the compound CCCc1nn(C)c2c(=O)n(CCOc3cccc(O[C@@](C)(CC)C(=O)O)c3)c(C)nc12 [Example 104] ? 158

====

- TARGET_ENTITY: human PPARδ (Homo sapiens, UniProt Q03181)
- Construct: expressed in transfected cells; host or cells: HEK-293
- Sequence (Q03181 211-439 limits assumed): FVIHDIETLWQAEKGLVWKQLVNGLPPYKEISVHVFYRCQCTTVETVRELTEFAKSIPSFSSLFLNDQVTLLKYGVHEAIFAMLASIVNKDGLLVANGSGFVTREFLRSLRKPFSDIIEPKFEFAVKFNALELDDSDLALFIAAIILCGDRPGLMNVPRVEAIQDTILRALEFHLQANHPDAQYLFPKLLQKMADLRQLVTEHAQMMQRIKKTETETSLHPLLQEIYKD
- MEASUREMENT_DESCRIPTION: in vitro PPARδ transactivation, GAL4-LBD luciferase reporter in HEK-293 cells
- Format: cell-based
- COND: test compound at 1 μM; luciferase fold activation relative to untreated cells
QUANTITY_MEASURED: PPARδ activation
Quick one: just the number, no unit, thanks!

Worked cases, PPARδ activation given:
- COMPOUND: "CCCc1nn(C)c2c(=O)n(CCCc3cccc(OC(C)(C)C(=O)O)c3)c(C)nc12.N=C(N)NCCC[C@H](N)C(=O)O"
  TARGET_ENTITY: "human PPARδ (Homo sapiens, UniProt Q03181)"
  VAL: 0
- COMPOUND: "CCCc1nn(C)c2c(=O)n(CCOc3cc(O[C@](C)(CC)C(=O)O)ccc3Cl)c(C)nc12"
  TARGET_ENTITY: "human PPARδ (Homo sapiens, UniProt Q03181)"
  VAL: 1.7

Which PPARδ activation reading was recorded for the compound CCCc1nn(C)c2c(=O)n(CCOc3cccc(OC(C)(C)C(=O)OCC)c3)c(C)nc12 ? 0.3

Which PPARδ activation reading was recorded for the compound CCCc1nn(C)c2c(=O)n(CCOc3cccc(OC(C)(C)C(=O)O)c3)c(C)nc12 ? 0

Which PPARδ activation reading was recorded for the compound CCCc1nn(C)c2c(=O)n(CCOc3cccc(OC(C)(CC)C(=O)O)c3)c(C)nc12 (stereo not drawn) ? 0.6

Which PPARδ activation reading was recorded for the compound CCCc1nn(C)c2c(=O)n(CCCc3ccc(OC(C)(CC)C(=O)O)cc3)c(C)nc12 (stereo not drawn) ? 0.1
